- system.under.test: Trace amine-associated receptor 1 (Homo sapiens)
- test.description: Agonist activity at human TAAR1 receptor expressed in HEK293T cells cotransfected with beta-2 receptor assessed as cAMP production by BRET assay relative to beta-PEA
- Type: functional, cell-based
- Design: concentration or dose not given beside the values
- stated.conditions: HEK-293T
# note: exactly 40% is not below, so it is condition not met; use condition met for Activity strictly under it

Before answering, review these 4 worked examples.
> print(dat)
                                   molecule                         system.under.test        class.label
1                N=C(N)N/N=C/c1c(Cl)cccc1Cl  Trace amine-associated receptor 1 (Homo sapiens)      condition met
2  Cn1c(C2CCCN2)nc2ccccc21 (stereo not given)  Trace amine-associated receptor 1 (Homo sapiens)  condition not met
3               N=C(N)N/N=C/c1ccc2c(c1)OCO2  Trace amine-associated receptor 1 (Homo sapiens)      condition met
4  CCn1c(C2CCCN2)nc2ccccc21 (stereo not given)  Trace amine-associated receptor 1 (Homo sapiens)      condition met

### Prompt # check: Activity < 40% for Cn1c(C2CCCCN2)nc2ccccc21 (stereo not given)
### Response condition met
